ASSAYED TARGET: Wee1 protein (Homo sapiens, UniProt P30291)
Sequence (P30291 whole entry): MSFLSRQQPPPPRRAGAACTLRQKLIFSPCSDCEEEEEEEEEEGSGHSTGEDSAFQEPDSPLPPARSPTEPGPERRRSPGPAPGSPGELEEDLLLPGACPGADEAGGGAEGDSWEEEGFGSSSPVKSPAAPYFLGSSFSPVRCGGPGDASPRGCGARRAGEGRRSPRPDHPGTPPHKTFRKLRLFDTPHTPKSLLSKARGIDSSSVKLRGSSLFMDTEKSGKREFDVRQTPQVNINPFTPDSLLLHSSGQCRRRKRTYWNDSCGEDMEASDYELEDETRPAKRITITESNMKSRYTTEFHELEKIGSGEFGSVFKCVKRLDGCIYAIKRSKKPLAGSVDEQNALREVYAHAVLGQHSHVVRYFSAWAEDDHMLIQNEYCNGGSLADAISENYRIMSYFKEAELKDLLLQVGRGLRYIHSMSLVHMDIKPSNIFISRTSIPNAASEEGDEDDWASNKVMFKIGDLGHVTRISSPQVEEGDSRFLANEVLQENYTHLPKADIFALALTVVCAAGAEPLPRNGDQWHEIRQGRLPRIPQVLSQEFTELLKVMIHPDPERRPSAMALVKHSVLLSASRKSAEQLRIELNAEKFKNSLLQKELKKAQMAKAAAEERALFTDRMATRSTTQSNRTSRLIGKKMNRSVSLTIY

CHEMICAL STRING	IC50
CS(C)(=O)=Nc1cccc(-n2ncc3cnc(Nc4ccc(N5CCOCC5)cc4)nc32)n1	10 to 100 nM
CN1CCN(c2ccc(Nc3ncc4cnn(-c5ccc6ccncc6c5)c4n3)cc2)CC1	10 to 100 nM
COc1cc(N2CCN(C)CC2)ccc1Nc1ncc2cnn(-c3cccc(N=S(C)(C)=O)n3)c2n1	100 to 1000 nM
CN1CCN(c2ccc(Nc3ncc4cnn(-c5ccnc(N=S(C)(C)=O)c5)c4n3)cc2)CC1	100 to 1000 nM

---

ASSAYED TARGET: UniProt:P10635
Sequence (P10635 whole entry): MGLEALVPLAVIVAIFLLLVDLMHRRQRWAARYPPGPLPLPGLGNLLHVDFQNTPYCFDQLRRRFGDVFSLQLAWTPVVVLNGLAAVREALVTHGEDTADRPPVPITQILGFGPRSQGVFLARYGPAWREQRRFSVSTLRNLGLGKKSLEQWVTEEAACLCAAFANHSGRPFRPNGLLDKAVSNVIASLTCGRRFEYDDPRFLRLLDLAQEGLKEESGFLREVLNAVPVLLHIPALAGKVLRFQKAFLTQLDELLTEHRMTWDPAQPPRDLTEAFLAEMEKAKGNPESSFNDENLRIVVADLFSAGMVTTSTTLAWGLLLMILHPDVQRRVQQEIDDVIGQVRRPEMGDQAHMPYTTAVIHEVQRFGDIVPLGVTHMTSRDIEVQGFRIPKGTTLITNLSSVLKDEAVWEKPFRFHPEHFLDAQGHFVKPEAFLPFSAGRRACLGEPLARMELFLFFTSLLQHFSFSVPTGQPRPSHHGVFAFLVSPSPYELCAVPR
RUN DESCRIPTION: Inhibition of cytochrome P450, CYP2D6
Format: in vitro ADME
TEST PARAMETERS: CYP2D6 enzyme, pH 7.4, probe EOMCC, compound concentration 1 μM, read-out: CYP inhibition/% 2D6

CHEMICAL STRING	RESULT UNIT	inhibition at 30 min, 1 µM
CN1CCN(c2ccc(Nc3ncc4cnn(-c5cccc(C(C)(C)O)n5)c4n3)cc2)CC1	%	0.3
CN1CCN(c2ccc(Nc3ncc4cnn(-c5cccc(N=S(C)(C)=O)n5)c4n3)cc2)CC1	%	2.8
CS(C)(=O)=Nc1cccc(-n2ncc3cnc(Nc4ccc(N5CCOCC5)cc4)nc32)n1	%	-7.6

---

ASSAYED TARGET: CYP1A2 (Homo sapiens)
Sequence (P05177 whole entry): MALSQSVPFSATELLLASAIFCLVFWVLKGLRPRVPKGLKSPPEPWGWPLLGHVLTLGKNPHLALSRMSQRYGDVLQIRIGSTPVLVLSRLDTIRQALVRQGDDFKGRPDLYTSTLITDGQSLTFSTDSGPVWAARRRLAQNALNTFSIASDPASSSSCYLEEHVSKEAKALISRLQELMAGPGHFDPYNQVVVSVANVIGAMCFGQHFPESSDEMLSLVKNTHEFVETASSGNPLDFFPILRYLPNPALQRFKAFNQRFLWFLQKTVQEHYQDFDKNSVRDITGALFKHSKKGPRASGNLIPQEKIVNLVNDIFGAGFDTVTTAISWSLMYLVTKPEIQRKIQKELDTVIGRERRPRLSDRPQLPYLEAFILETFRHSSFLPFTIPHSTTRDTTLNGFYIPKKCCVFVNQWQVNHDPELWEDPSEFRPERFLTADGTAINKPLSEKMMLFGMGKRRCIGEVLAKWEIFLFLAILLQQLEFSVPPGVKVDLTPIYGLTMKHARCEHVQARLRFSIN
RUN DESCRIPTION: Inhibition of cytochrome P450, CYP1A2
Assay type: in vitro ADME
TEST PARAMETERS: CYP1A2 enzyme, pH 7.4, probe EOMCC, compound concentration 10 μM, read-out: CYP inhibition/% 1A2
Measured inhibition at 30 min, 10 µM, listed per entry.

MOLECULE	inhibition at 30 min, 10 µM (%)
CN1CCN(c2ccc(Nc3ncc4cnn(-c5cccc(N=S(C)(C)=O)n5)c4n3)cc2)CC1 [Compound 1]	16.3
CN1CCN(c2ccc(Nc3ncc4cnn(-c5cccc(C(C)(C)O)n5)c4n3)cc2)CC1 [Compound 2]	14.2
CS(C)(=O)=Nc1cccc(-n2ncc3cnc(Nc4ccc(N5CCOCC5)cc4)nc32)n1 [Compound 6]	23.3

---

ASSAYED TARGET: CYP2C9 (Homo sapiens)
Sequence (P11712 whole entry): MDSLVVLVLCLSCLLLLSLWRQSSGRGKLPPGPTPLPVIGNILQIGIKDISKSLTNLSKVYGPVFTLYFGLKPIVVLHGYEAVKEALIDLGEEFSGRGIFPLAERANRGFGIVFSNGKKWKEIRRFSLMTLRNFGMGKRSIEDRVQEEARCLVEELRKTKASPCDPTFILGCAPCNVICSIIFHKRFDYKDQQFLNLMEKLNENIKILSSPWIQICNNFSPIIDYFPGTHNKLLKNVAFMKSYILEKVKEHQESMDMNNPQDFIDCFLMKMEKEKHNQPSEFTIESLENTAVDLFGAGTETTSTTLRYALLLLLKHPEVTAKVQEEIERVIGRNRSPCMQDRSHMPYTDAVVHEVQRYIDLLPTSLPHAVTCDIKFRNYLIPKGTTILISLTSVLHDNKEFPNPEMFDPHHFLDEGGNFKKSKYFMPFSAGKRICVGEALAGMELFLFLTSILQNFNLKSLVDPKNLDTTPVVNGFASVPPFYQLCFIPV
RUN DESCRIPTION: Inhibition of cytochrome P450, CYP2C9
Assay type: in vitro ADME
TEST PARAMETERS: CYP2C9 enzyme, pH 7.4, probe BOMCC, compound concentration 1 μM, read-out: CYP inhibition/% 2C9
Measured inhibition at 30 min, 1 µM, listed per entry.

CHEMICAL STRING	RESULT UNIT	inhibition at 30 min, 1 µM
CN1CCN(c2ccc(Nc3ncc4cnn(-c5cccc(N=S(C)(C)=O)n5)c4n3)cc2)CC1	%	7.5
CS(C)(=O)=Nc1cccc(-n2ncc3cnc(Nc4ccc(N5CCOCC5)cc4)nc32)n1	%	15.3
CN1CCN(c2ccc(Nc3ncc4cnn(-c5cccc(C(C)(C)O)n5)c4n3)cc2)CC1	%	-10.6

---

ASSAYED TARGET: Wee1 protein (Homo sapiens)
pIC50: −log10 of the molar value.
READOUT TYPE: pIC50

COMPOUND	TEST VALUE
CN1CCN(c2ccc(Nc3ncc4cnn(-c5cccc(-n6ccccc6=O)c5)c4n3)cc2)CC1 [Compound 48]	7.00 to 8.00
CN1CCN(c2ccc(Nc3ncc4cnn(-c5ccc6scnc6c5)c4n3)cc2)CC1 [Compound 37]	7.00 to 8.00
CN1CCN(c2ccc(Nc3ncc4cnn(-c5cccc(C(C)(O)C(F)(F)F)n5)c4n3)cc2)CC1 (centres unmarked) [Compound 4]	7.00 to 8.00
CCn1ncc2ccc(-n3ncc4cnc(Nc5ccc(N6CCN(C)CC6)cc5)nc43)nc21 [Compound 60]	7.00 to 8.00
CN1CCN(c2ccc(Nc3ncc4cnn(-c5cccc(N=S(C)(C)=O)n5)c4n3)cc2)CC1 [Compound 1]	8.00 to 9.00
CN1CCN(c2ccc(Nc3ncc4cnn(-c5ccc6c(c5)c(N)nn6C)c4n3)cc2)CC1 [Compound 49]	6.00 to 7.00
Cc1nc2cccc(-n3ncc4cnc(Nc5ccc(N6CCN(C)CC6)cc5)nc43)c2o1 [Compound 51]	7.00 to 8.00
CCN1C(=O)C2(CC2)c2ccc(-n3ncc4cnc(Nc5ccc(N6CCN(C)CC6)cc5)nc43)cc21 [Compound 61]	6.00 to 7.00
